- experimentDescription: Cytotoxicity against human MCF10A cells assessed as growth inhibition at 40 uM after 72 hrs by MTT assay relative to control
- Assay type: cell-based, MCF-10A
- cond: read-out: GI
endpointName: inhibition at 72 h, 40 µM (%)
Report the value in % with no unit label.

Quick one: inhibition at 72 h, 40 µM of O=C(Nc1c(Cl)ncnc1Cl)C(Cl)Cl ? 42.4

Could you now consider this next compound?
Quick one: inhibition at 72 h, 40 µM of Cc1nc(Cl)c(NC(=O)C(Cl)Cl)c(Cl)n1 ? 41.6

###

- experimentDescription: Cytotoxicity against human MCF10A cells assessed as growth inhibition at 10 uM after 72 hrs by MTT assay relative to control
- Type: cell-based, MCF-10A
- cond: read-out: GI
Listed below: inhibition at 72 h, 10 µM values for each entry.
Report the value in % with no unit label.

Here's what some known entries look like.
Quick one: inhibition at 72 h, 10 µM of Cc1nc(Cl)c(NC(=O)C(Cl)Cl)c(Cl)n1 ? 7.57

Quick one: inhibition at 72 h, 10 µM of O=C(Nc1c(Cl)ncnc1Cl)C(Cl)Cl ? 4.91

Could you now consider this next compound?
Quick one: inhibition at 72 h, 10 µM of O=C(Nc1ccc(Cl)c(C(F)(F)F)c1)C(Cl)Cl ? 3.51
